biological target: binding partner of C5A (XPA23); assay: Biacore
Listing: log10 of fold affinity vs original of selected binders
Reminder: these figures are log10 of reported fold affinity vs original, in fold before transformation.

Some entries whose results are on file:
BINDER	RESULT_NUMBER
C5A (XPA23) VH D106R (antibody, V domains shown) VH: EVQLLESGGGLVQPGGSLRLSCAASGFTFSKYFMFWVRQAPGKGLEWVSVISPSGGMTRYADSVKGRFTISRDNSKNTLYLQMNSLRAEDTAVYYCARVGYGGNSRYWGQGTLVTVSS VL: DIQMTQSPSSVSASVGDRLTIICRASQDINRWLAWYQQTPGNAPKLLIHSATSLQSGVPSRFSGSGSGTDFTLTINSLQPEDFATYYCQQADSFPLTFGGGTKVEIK	-1.22
C5A (XPA23) VH T58N (antibody, V domains shown) VH: EVQLLESGGGLVQPGGSLRLSCAASGFTFSKYFMFWVRQAPGKGLEWVSVISPSGGMNRYADSVKGRFTISRDNSKNTLYLQMNSLRAEDTAVYYCARVGYGGNSDYWGQGTLVTVSS VL: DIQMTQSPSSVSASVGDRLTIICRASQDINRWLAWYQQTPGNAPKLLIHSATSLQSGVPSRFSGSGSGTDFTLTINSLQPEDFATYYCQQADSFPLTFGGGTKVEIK	-0.05
C5A (XPA23) VH I51E (antibody, V domains shown) VH: EVQLLESGGGLVQPGGSLRLSCAASGFTFSKYFMFWVRQAPGKGLEWVSVESPSGGMTRYADSVKGRFTISRDNSKNTLYLQMNSLRAEDTAVYYCARVGYGGNSDYWGQGTLVTVSS VL: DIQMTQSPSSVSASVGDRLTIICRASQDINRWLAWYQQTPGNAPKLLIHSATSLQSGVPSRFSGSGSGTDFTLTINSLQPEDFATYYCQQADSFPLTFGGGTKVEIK	-0.14
C5A (XPA23) VH S54D (antibody, V domains shown) VH: EVQLLESGGGLVQPGGSLRLSCAASGFTFSKYFMFWVRQAPGKGLEWVSVISPDGGMTRYADSVKGRFTISRDNSKNTLYLQMNSLRAEDTAVYYCARVGYGGNSDYWGQGTLVTVSS VL: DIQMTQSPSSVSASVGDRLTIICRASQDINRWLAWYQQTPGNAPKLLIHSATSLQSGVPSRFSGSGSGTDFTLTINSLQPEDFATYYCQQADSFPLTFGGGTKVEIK	-0.92

// next item, log10 of fold affinity vs original requested
Find the measured log10 of fold affinity vs original of C5A (XPA23) VH S105H (antibody, V domains shown) VH: EVQLLESGGGLVQPGGSLRLSCAASGFTFSKYFMFWVRQAPGKGLEWVSVISPSGGMTRYADSVKGRFTISRDNSKNTLYLQMNSLRAEDTAVYYCARVGYGGNHDYWGQGTLVTVSS VL: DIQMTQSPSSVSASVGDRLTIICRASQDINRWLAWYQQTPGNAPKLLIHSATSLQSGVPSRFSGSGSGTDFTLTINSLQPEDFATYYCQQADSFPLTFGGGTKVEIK and report it.
-1.30
